Entry source: patent EP4582413A1

- System: green peach aphids (Myzus persicae)
- Assay Notes: Insecticidal test for green peach aphids
- Assay type: in vivo
- Experimental Context: 500 ppm chemical solution sprinkled (2.5 mg/cm^2), wingless imagoes on leaf disc, six days, 25°C; 8640 min
Hi there, I'd appreciate the recorded death rate for every entry that follows.

Reported death rate for Cc1ccc(NC(=O)C2=C(O)CC(c3nc(-c4ccnc(F)c4)no3)NC2=O)c(C)c1 (stereo not drawn) [3-266] : what is it?
≥ 90%

Reported death rate for CN(C)c1ccc(-c2noc(C3CC(O)=C(C(=O)Nc4ccc(F)cn4)C(=O)N3)n2)cc1 (stereo not drawn) [3-118] : what is it?
≥ 90%

Reported death rate for Cc1ccc(NC(=O)C2=C(O)CC(c3nc(-c4ncccn4)no3)NC2=O)nc1 (stereo not drawn) [3-167] : what is it?
≥ 90%
